- assay_remarks: Clinical study in healthy adult subjects: pharmacokinetics
- Type: in vivo, human
- experimental_context: human, plasma, single oral dose 10 mg, mean (%CV)
measure: Cmax (ng/mL)
One number for each entry, in ng/mL.

Exercise: What value of Cmax has been reported for the following molecule? `C[C@H](Nc1ncnc2[nH]cnc12)c1cc2cccc(Cl)c2c(=O)n1-c1ccccc1`
Solution: 454

----------
- Test system: B cell
- assay_remarks: B cell proliferation
- Format: cell-based
measure: EC50

These recorded examples may help you get a feel for the data.
Cc1cccc2cc([C@H](C)Nc3ncnc4[nH]cnc34)n(-c3cccc(F)c3)c(=O)c12; < 100 nM
CC(=O)Nc1nc2ccc(-c3nn(Cc4cc5cccc(Cl)c5c(=O)n4C4CC4)c4ncnc(N)c34)cc2s1; < 100 nM

Need EC50 for each of these compounds.
1. COc1cc(-c2nn(Cc3cc4cccc(C)c4c(=O)n3-c3ccccc3C)c3ncnc(N)c23)ccc1Cl
2. CCC(Nc1ncnc2[nH]cnc12)c1cc2cccc(C)c2c(=O)n1C1CCN(C)CC1 (stereo not shown)
3. C[C@H](Nc1ncnc2[nH]cnc12)c1cc2cccc(Cl)c2c(=O)n1-c1ccccc1
4. Nc1ncnc2c1c(-c1cccc(O)c1)nn2Cc1cc2cccc(Cl)c2c(=O)n1C1CC1
5. Cc1cccc2cc(Cn3nc(C#C[C@@H](C)O)c4c(N)ncnc43)n(C(C)C)c(=O)c12
6. C=Cc1nn(Cc2cc3cccc(C)c3c(=O)n2-c2ccccc2)c2ncnc(N)c12
7. Cc1cccc2cc(Cn3nc(-c4ccc5nc(N)sc5c4)c4c(N)ncnc43)n(-c3ccccc3)c(=O)c12
8. Cc1cccc2cc(Cn3nc(-c4cc(O)cc(F)c4)c4c(N)ncnc43)n(C(C)C)c(=O)c12

Solution:
< 1000 nM
< 100 nM
< 100 nM
< 100 nM
< 1000 nM
< 100 nM
< 100 nM
< 100 nM

Need EC50 for each of these compounds.
1. Cc1cccc2cc(Cn3nc(I)c4c(N)ncnc43)n(-c3ccccc3F)c(=O)c12
2. Cc1ccccc1-n1c(Cn2nc(-c3cc(O)cc(F)c3)c3c(N)ncnc32)cc2cccc(F)c2c1=O
3. Cc1cccc2cc(C(C)Nc3ncnc4[nH]cnc34)n(C3CCCC3)c(=O)c12 (stereo not shown)
4. COc1ccc(-c2nn(Cc3cc4cccc(C)c4c(=O)n3-c3ccccc3C)c3ncnc(N)c23)cc1OC

Solution:
< 10000 nM
< 100 nM
< 100 nM
< 100 nM

Need EC50 for each of these compounds.
1. Cc1ccccc1-n1c(Cn2nc(-c3ccc4sc(N)nc4c3)c3c(N)ncnc32)cc2cccc(C)c2c1=O
2. Cc1ccccc1-n1c(Cn2nc(I)c3c(N)ncnc32)cc2ccccc2c1=O
3. Cc1cccc2cc(Cn3nc(C#C[C@@H](C)O)c4c(N)ncnc43)n(C3CCCCC3)c(=O)c12
4. Cc1cccnc1-n1c(Cn2nc(I)c3c(N)ncnc32)cc2cccc(C)c2c1=O

Solution:
< 100 nM
< 1000 nM
< 10000 nM
< 1000 nM

----------
- assay_remarks: Clinical study in healthy adult subjects: pharmacokinetics
- Type: in vivo, human
- experimental_context: human, plasma, po, 1 mg, single oral dose 1 mg, mean (%CV), read-out: AUC(0-t)
measure: AUC(0-t) (ng·h/mL)
Numbers only, in ng·h/mL.

Exercise: What value of AUC(0-t) has been reported for the following molecule? `C[C@H](Nc1ncnc2[nH]cnc12)c1cc2cccc(Cl)c2c(=O)n1-c1ccccc1`
Solution: 148
